Just for reference, PubChem BioAssay (NCI) is where these values come from.

system: U251 CNS; test: NCI-60 one-dose screen, 48 h (100 = growth as untreated, 0 = no growth, -100 = all killed); settings: 10 µM unless noted
This is part of a sample that, as a whole, favours compounds with a hit. Of some 83,000 tested, about 20% had one in any assay.
outcome_measure: growth (%)
API: value field is a number in %; no unit string.

* Cc1ccc(C(=O)Nc2cccc(C(=O)NC(=S)Nc3ccc(S(N)(=O)=O)cc3)c2)cc1 | 84.4
* COc1ccc2ccccc2c1/C=C1\SC(=Nc2ccc(O)cc2)NC1=O | 5.13
* O=C(NNC(=O)c1ccc(OCc2nc3ccc(Cl)cc3[nH]2)cc1)Nc1ccc(Cl)c(Cl)c1 | -1.4
* Cc1ccc(C(C(=O)NC2CCCCC2)N(Cc2ccccc2Cl)C(=O)c2ccc(CN3CCOCC3)o2)o1 (stereo unspecified) | 103
* CN1CCN(C(=O)Oc2cc3c(c4ccccc24)[C@H](CCl)CN3C(=O)c2cc3cc(OCCCN4CCC4)ccc3[nH]2)[C@H]2CSSC[C@H]21 | 6.86

Now take the following compound into account.
Query: Can you look up the measured growth of O=C(Nc1nc2ccccc2s1)Nc1ccccc1Cl for me?
Result: 55.7
